A short record of log10(Ki) observed with Norepinephrine transporter (Rattus norvegicus, UniProt Q9WTR4) follows.
Sequence (Q9WTR4 whole entry): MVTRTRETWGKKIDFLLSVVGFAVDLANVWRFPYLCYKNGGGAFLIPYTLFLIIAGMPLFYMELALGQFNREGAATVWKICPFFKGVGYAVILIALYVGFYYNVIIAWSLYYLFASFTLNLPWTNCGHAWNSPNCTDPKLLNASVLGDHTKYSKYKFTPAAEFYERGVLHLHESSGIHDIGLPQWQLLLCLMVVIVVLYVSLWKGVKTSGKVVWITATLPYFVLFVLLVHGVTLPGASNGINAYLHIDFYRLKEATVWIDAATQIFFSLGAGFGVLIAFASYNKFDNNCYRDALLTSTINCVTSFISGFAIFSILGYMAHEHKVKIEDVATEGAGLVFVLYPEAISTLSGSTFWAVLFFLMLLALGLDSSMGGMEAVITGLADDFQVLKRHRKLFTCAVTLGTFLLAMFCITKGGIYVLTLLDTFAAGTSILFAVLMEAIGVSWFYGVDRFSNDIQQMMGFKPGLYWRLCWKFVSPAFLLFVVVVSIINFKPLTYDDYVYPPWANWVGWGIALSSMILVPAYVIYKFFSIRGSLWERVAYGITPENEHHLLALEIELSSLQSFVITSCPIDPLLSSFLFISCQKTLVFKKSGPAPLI
Quick note: numbers are log10 of Ki, with nM as the unit.

INSERT INTO measurements (molecule, systemtested, reported) VALUES
  ('COC(=O)C1C(c2ccc(C)c(F)c2)CC2CCC1N2C (configuration not stated)', 'Norepinephrine transporter (Rattus norvegicus, UniProt Q9WTR4)', 1.35),
  ('COC(=O)C1C2CCC(CC1c1ccc(C)c(F)c1)N2 (configuration not stated)', 'Norepinephrine transporter (Rattus norvegicus, UniProt Q9WTR4)', -0.37),
  ('COC(=O)C1C2CCC(CC1c1cccc(F)c1)N2 (configuration not stated)', 'Norepinephrine transporter (Rattus norvegicus, UniProt Q9WTR4)', 0.60),
  ('COC(=O)C1C2CCC(CC1c1ccc(F)c(F)c1)N2 (configuration not stated)', 'Norepinephrine transporter (Rattus norvegicus, UniProt Q9WTR4)', 0.41),
  ('COC(=O)C1C2CCC(CC1c1ccc(F)c(C)c1)N2 (configuration not stated)', 'Norepinephrine transporter (Rattus norvegicus, UniProt Q9WTR4)', 0.33),
  ('COC(=O)C1C2CCC(CC1c1cc(F)cc(F)c1)N2 (configuration not stated)', 'Norepinephrine transporter (Rattus norvegicus, UniProt Q9WTR4)', 0.31);

As a next step, examine the molecule that follows.
In: Which log10(Ki) reading was recorded for the molecule COC(=O)C1C(c2ccc(F)c(C)c2)CC2CCC1N2C (configuration not stated) ?
Out: 1.87

---

molecular target: UniProtKB P23977; test: Inhibition of [3H]WIN-35428 binding to rat striatal dopamine transporter
Sequence (P23977 whole entry): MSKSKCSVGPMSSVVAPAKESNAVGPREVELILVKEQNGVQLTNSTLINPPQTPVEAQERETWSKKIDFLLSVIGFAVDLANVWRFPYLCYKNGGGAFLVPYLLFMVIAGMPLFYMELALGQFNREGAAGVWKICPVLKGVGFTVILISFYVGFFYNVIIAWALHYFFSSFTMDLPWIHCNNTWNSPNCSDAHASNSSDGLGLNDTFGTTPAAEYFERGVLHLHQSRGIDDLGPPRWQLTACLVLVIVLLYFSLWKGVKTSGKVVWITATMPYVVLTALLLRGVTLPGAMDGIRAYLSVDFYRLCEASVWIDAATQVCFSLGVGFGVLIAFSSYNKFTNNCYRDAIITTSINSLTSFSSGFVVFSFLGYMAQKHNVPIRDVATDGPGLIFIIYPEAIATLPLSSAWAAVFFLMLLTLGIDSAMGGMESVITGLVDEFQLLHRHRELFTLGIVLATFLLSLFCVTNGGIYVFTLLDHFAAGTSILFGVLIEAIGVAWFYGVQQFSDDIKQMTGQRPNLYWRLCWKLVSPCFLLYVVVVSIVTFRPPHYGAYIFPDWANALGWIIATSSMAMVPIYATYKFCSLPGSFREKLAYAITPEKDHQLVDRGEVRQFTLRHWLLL
experimentalReadout: IC50 (nM)
Number only, in nM; omit the unit.

INSERT INTO assay_data (compound, unitofmeasurement, reported) VALUES
  ('COC(=O)C1C(c2ccc(F)c(C)c2)CC2CCC1N2C (configuration not stated)', 'nM', 13.7),
  ('COC(=O)C1C2CCC(CC1c1ccc(F)c(C)c1)N2 (configuration not stated)', 'nM', 9.38),
  ('COC(=O)C1C2CCC(CC1c1ccc(F)c(F)c1)N2 (configuration not stated)', 'nM', 5.61),
  ('COC(=O)C1C(c2ccc(C)c(F)c2)CC2CCC1N2C (configuration not stated)', 'nM', 7.38),
  ('COC(=O)C1C2CCC(CC1c1ccc(C)c(F)c1)N2 (configuration not stated)', 'nM', 9),
  ('COC(=O)C1C2CCC(CC1c1cc(F)cc(F)c1)N2 (configuration not stated)', 'nM', 2.35);

As a next step, examine the compound that follows.
In: Which IC50 reading was recorded for the compound COC(=O)C1C2CCC(CC1c1cccc(F)c1)N2 (configuration not stated) ?
Out: 2.36

---

A short record of IC50 observed with Sodium-dependent serotonin transporter (Rattus norvegicus) follows.
Sequence (P31652 whole entry): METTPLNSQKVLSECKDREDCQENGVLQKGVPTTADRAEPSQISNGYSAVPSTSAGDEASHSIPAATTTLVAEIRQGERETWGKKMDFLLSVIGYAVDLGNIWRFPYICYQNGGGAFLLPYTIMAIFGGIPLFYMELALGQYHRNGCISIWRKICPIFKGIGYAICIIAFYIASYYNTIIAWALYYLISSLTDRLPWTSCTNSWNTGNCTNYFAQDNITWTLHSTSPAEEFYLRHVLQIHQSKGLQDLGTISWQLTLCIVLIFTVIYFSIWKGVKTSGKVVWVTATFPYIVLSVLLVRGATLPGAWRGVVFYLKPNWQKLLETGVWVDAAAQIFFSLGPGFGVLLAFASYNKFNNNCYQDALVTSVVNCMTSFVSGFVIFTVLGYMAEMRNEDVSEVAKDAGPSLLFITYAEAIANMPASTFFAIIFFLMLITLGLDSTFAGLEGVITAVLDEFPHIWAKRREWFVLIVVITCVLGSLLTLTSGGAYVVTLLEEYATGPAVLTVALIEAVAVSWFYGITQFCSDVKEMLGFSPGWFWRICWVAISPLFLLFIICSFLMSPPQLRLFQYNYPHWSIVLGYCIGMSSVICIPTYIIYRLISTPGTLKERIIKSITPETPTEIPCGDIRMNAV
Number only, in nM; omit the unit.

INSERT INTO measurements (compound, experimentalreadout, reported) VALUES
  ('COC(=O)C1C(c2ccc(F)c(C)c2)CC2CCC1N2C (configuration not stated)', 'IC50', 1160);

In: Enter reported IC50 observed with Sodium-dependent serotonin transporter (Rattus norvegicus) for COC(=O)C1C2CCC(CC1c1cc(F)cc(F)c1)N2 (configuration not stated)
Out: 55.8

In: Enter reported IC50 observed with Sodium-dependent serotonin transporter (Rattus norvegicus) for COC(=O)C1C2CCC(CC1c1cccc(F)c1)N2 (configuration not stated)
Out: 110

In: Enter reported IC50 observed with Sodium-dependent serotonin transporter (Rattus norvegicus) for COC(=O)C1C2CCC(CC1c1ccc(C)c(F)c1)N2 (configuration not stated)
Out: 97.4

In: Enter reported IC50 observed with Sodium-dependent serotonin transporter (Rattus norvegicus) for COC(=O)C1C(c2ccc(C)c(F)c2)CC2CCC1N2C (configuration not stated)
Out: 1150

In: Enter reported IC50 observed with Sodium-dependent serotonin transporter (Rattus norvegicus) for COC(=O)C1C2CCC(CC1c1ccc(F)c(F)c1)N2 (configuration not stated)
Out: 226

In: Enter reported IC50 observed with Sodium-dependent serotonin transporter (Rattus norvegicus) for COC(=O)C1C2CCC(CC1c1ccc(F)c(C)c1)N2 (configuration not stated)
Out: 69.8
